TEST DESCRIPTION: Pharmacokinetics of vorolanib after single and multiple dosing
Assay type: in vivo, human
STUDY CONDITIONS: human, plasma, oral; multiple doses 50 mg daily, n = 8; arithmetic mean (%CV)
ASSAY ENDPOINT: AUC (ng·h/mL)
Could you give me the number in ng·h/mL? Just the number is fine.

Give reported AUC value for `Cc1[nH]c(/C=C2\C(=O)Nc3ccc(F)cc32)c(C)c1C(=O)N[C@H]1CCN(C(=O)N(C)C)C1` 2180

###

TEST DESCRIPTION: Pharmacokinetics of vorolanib after single and multiple dosing
Format: in vivo, human
STUDY CONDITIONS: human, plasma, oral, 50 mg, single dose 50 mg, n = 8; arithmetic mean (%CV); read-out: Cmax
ASSAY ENDPOINT: Cmax (µg/mL)
Could you give me the number in µg/mL? Just the number is fine.

Give reported Cmax value for `Cc1[nH]c(/C=C2\C(=O)Nc3ccc(F)cc32)c(C)c1C(=O)N[C@H]1CCN(C(=O)N(C)C)C1` 0.201
